Data provenance is patent US20230111853A1.

TEST_SYSTEM: SALL4 recruitment to CRBN (Homo sapiens)
Construct: Full size proteins were fused for each of the target proteins tested, except in the case of IKZF1 where isoform 7 was used
Sequence (Q96SW2 whole entry, the tested form may be a part, canonical isoform): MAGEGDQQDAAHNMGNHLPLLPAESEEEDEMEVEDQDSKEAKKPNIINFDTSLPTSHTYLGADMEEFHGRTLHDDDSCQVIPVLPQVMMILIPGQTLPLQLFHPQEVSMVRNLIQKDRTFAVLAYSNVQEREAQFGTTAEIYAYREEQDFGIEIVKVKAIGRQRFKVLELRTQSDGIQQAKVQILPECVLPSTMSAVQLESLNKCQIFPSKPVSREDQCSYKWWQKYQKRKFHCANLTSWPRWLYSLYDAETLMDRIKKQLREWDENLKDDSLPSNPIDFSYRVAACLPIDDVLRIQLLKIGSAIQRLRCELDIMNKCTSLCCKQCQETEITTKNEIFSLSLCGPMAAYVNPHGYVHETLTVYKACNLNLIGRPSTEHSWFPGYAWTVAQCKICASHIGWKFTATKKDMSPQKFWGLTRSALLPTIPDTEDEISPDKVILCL
Sequence (Q9UJQ4 whole entry partner, the tested form may be a part, canonical isoform): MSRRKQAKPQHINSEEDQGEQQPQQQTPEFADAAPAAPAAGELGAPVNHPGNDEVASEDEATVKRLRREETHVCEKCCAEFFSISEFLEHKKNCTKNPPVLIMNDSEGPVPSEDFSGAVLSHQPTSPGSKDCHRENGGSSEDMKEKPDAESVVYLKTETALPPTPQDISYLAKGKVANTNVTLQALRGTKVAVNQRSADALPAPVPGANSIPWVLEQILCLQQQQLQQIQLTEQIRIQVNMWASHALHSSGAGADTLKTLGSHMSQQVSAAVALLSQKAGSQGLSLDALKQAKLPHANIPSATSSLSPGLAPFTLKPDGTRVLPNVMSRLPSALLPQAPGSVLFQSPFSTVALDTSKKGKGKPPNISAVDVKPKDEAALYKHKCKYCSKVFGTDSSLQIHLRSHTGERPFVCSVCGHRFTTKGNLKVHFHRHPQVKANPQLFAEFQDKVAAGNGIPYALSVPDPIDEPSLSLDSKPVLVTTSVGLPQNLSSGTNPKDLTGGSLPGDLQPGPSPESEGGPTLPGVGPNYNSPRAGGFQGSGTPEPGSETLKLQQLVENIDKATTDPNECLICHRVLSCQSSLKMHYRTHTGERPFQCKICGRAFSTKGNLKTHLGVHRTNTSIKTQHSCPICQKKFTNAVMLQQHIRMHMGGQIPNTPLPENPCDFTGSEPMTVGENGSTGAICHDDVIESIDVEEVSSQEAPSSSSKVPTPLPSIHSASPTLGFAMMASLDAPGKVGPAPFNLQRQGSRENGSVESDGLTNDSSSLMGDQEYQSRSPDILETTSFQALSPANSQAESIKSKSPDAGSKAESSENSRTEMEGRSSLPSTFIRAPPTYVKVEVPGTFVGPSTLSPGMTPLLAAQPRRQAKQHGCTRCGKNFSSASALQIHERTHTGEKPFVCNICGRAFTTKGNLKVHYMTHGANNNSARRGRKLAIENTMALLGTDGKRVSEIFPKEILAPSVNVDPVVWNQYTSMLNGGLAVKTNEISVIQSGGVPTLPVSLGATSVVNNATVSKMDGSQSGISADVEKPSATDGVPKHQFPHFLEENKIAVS
Sequence (Q16531 whole entry partner, the tested form may be a part, canonical isoform): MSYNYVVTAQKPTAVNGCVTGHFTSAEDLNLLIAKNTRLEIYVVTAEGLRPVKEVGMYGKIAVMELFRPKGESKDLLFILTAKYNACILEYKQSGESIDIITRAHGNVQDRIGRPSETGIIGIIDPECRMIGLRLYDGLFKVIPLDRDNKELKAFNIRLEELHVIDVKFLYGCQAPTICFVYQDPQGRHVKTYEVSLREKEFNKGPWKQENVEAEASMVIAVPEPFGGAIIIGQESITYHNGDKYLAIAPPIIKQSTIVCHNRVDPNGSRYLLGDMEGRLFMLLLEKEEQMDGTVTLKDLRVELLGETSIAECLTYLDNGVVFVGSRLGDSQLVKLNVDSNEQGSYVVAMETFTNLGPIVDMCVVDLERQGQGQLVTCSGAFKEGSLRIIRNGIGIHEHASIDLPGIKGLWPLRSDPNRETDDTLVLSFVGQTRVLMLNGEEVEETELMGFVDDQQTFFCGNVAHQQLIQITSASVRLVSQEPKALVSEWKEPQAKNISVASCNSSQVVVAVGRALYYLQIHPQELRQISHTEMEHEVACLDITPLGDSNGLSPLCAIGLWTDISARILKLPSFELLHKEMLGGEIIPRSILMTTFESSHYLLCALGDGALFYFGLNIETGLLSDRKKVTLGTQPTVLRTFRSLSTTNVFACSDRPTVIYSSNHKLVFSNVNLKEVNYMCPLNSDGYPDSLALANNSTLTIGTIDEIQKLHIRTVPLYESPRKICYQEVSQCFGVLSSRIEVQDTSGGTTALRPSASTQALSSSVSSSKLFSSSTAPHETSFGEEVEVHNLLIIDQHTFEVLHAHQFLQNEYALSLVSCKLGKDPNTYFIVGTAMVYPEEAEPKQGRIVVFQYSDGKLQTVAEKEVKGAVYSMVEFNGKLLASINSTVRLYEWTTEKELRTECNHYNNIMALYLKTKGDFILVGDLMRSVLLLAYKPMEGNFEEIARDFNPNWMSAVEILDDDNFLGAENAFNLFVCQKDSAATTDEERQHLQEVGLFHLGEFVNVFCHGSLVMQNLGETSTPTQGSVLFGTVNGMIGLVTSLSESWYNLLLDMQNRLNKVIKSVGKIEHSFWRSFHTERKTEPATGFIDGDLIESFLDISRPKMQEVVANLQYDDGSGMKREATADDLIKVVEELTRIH
ASSAY_OVERVIEW: Recruitment Assay (MAPPIT-like): SALL4 recruitment to CRBN
EXPERIMENTAL_SETUP: HEK293T cells; pSEL-SALL4+pMG1-CRBN; luciferase 24 hours after treatment; read-out: EC50_SALL4
QUANTITY_NAME: EC50 (nM)

# annotated cases, reported EC50 shown
- COMPOUND: "CN(C)C1c2ccccc2C(=O)N1C1CCC(=O)NC1=O (stereo not shown)"
  READOUT_NUMBER: 1460
- COMPOUND: "O=C1CCC(N2Cc3cc(NCCNC(=O)Nc4ccccc4)ccc3C2=O)C(=O)N1 (stereo not shown)"
  READOUT_NUMBER: 232
- COMPOUND: "CS(=O)(=O)Nc1cccc2c1CN(C1CCC(=O)NC1=O)C2=O (stereo not shown)"
  READOUT_NUMBER: 631
- COMPOUND: "O=C1CCC(N2Cc3cc(NCC(=O)Nc4ccccc4)ccc3C2=O)C(=O)N1 (stereo not shown)"
  READOUT_NUMBER: 1080
- COMPOUND: "Cc1ccc2nnn(C3CCC(=O)NC3=O)c(=O)c2c1 (stereo not shown)"
  READOUT_NUMBER: 772
- COMPOUND: "NC(=O)c1cccc(NC(=O)CNc2ccc3c(c2)CN(C2CCC(=O)NC2=O)C3=O)c1 (stereo not shown)"
  READOUT_NUMBER: 641
- COMPOUND: "O=C1CCC(N2Cc3cc4c(cc3C2=O)OCO4)C(=O)N1 (stereo not shown)"
  READOUT_NUMBER: 319
- COMPOUND: "O=C1CCC(N2Cc3ccc(NC(=O)c4cnc5nccn5c4)cc3C2=O)C(=O)N1 (stereo not shown)"
  READOUT_NUMBER: 1380

a. Cc1nc2ccc(C#N)c(N)c2c(=O)n1C1CCC(=O)NC1=O (stereo not shown)
b. O=C1CCC(N2Cc3ncccc3C2=O)C(=O)N1 (stereo not shown)
Incoming: Looking at recorded values for EC50, does a or b come in lower? State the label of the item chosen.
Outgoing: b

----------
Tested on: IKZF1, ASS1 and SALL4 recruitment to CRBN
ASSAY_OVERVIEW: Recruitment assessment: recruitment of any tested substrate from among IKZF1, ASS1 and SALL4
Format: cell-based
EXPERIMENTAL_SETUP: any tested substrate at any tested compound concentration
QUANTITY_NAME: Recruitment Assessment

- COMPOUND: "O=C1CCC(N2Cc3ccc(NCC(=O)N4Cc5ccccc5C4)cc3C2=O)C(=O)N1 (stereo not drawn)"
  QUANTITY_NAME: "Recruitment Assessment"
  RESULT: "FALSE"
- COMPOUND: "CC(=O)Nc1ccc2c(c1)C(=O)N(C1CCC(=O)NC1=O)C2 (stereo not drawn)"
  QUANTITY_NAME: "Recruitment Assessment"
  RESULT: "FALSE"
- COMPOUND: "O=C1CCC(N2C(=O)c3ccccc3C2OC2CCCCC2)C(=O)N1 (stereo not drawn)"
  QUANTITY_NAME: "Recruitment Assessment"
  RESULT: "FALSE"
- COMPOUND: "CN1CCN(C(=O)CNc2ccc3c(c2)C(=O)N(C2CCC(=O)NC2=O)C3)CC1=O (stereo not drawn)"
  QUANTITY_NAME: "Recruitment Assessment"
  RESULT: "FALSE"
- COMPOUND: "O=C1CCC(Nc2cnc3ccccc3n2)C(=O)N1 (stereo not drawn)"
  QUANTITY_NAME: "Recruitment Assessment"
  RESULT: "FALSE"

Summary line: Cc1ccc2c(c1)CN(C1CCC(=O)NC1=O)C2=O (stereo not drawn) , IKZF1, ASS1 and SALL4 recruitment to CRBN, reported Recruitment Assessment = TRUE

Summary line: NC(=O)c1cccc(NC(=O)CNc2ccc3c(c2)CN(C2CCC(=O)NC2=O)C3=O)c1 (stereo not drawn) , IKZF1, ASS1 and SALL4 recruitment to CRBN, reported Recruitment Assessment = TRUE

Summary line: O=C1CCC(N2Cc3cc(O)ccc3C2=O)C(=O)N1 (stereo not drawn) , IKZF1, ASS1 and SALL4 recruitment to CRBN, reported Recruitment Assessment = TRUE

Summary line: O=C1CCC(N2C(=O)C3=C(C2=O)c2ccccc2CC3)C(=O)N1 (stereo not drawn) , IKZF1, ASS1 and SALL4 recruitment to CRBN, reported Recruitment Assessment = TRUE
